# log2 fractional inhibitory concentration per record follows
- System: Mycobacterium tuberculosis Erdman (pMV306hsp+LuxG13)
- testName: log2 fractional inhibitory concentration at 50% inhibition (log2 FIC); higher = more antagonistic
- conditionSummary: growth medium: butyrate 5 mM; time point: terminal time point
Kindly provide the number alone.

Known results for compounds:
[[record]]
compound = "NNC(=O)c1ccncc1 [isoniazid] + CC(=O)NC[C@H]1CN(c2ccc(N3CCSCC3)c(F)c2)C(=O)O1 [sutezolid]"
testedon = "Mycobacterium tuberculosis Erdman (pMV306hsp+LuxG13)"
numericreadout = 0.264

[[record]]
compound = "NC(=O)c1cnccn1 [pyrazinamide] + CC(C)=CCC/C(C)=C/CNCCNC1C2CC3CC(C2)CC1C3 [SQ109]"
testedon = "Mycobacterium tuberculosis Erdman (pMV306hsp+LuxG13)"
numericreadout = 0.129

[[record]]
compound = "COc1nc2ccc(Br)cc2cc1[C@@H](c1ccccc1)[C@@](O)(CCN(C)C)c1cccc2ccccc12 [bedaquiline] + CC(=O)NC[C@H]1CN(c2ccc(N3CCSCC3)c(F)c2)C(=O)O1 [sutezolid]"
testedon = "Mycobacterium tuberculosis Erdman (pMV306hsp+LuxG13)"
numericreadout = 2.08

[[record]]
compound = "CO[C@H]1/C=C/O[C@@]2(C)Oc3c(C)c(O)c4c(O)c(c(/C=N/N5CCN(C)CC5)c(O)c4c3C2=O)NC(=O)/C(C)=C\\C=C\\[C@H](C)[C@H](O)[C@@H](C)[C@@H](O)[C@@H](C)[C@H](OC(C)=O)[C@@H]1C [rifampicin] + CC(=O)NC[C@H]1CN(c2ccc(N3CCSCC3)c(F)c2)C(=O)O1 [sutezolid]"
testedon = "Mycobacterium tuberculosis Erdman (pMV306hsp+LuxG13)"
numericreadout = -0.147


[ask] Write down the reported log2 fractional inhibitory concentration of CO[C@H]1/C=C/O[C@@]2(C)Oc3c(C)c(O)c4c(O)c(c(/C=N/N5CCN(C)CC5)c(O)c4c3C2=O)NC(=O)/C(C)=C\C=C\[C@H](C)[C@H](O)[C@@H](C)[C@@H](O)[C@@H](C)[C@H](OC(C)=O)[C@@H]1C [rifampicin] + CC(C)=CCC/C(C)=C/CNCCNC1C2CC3CC(C2)CC1C3 [SQ109] , test system: Mycobacterium tuberculosis Erdman (pMV306hsp+LuxG13).
[reply] 0.0743

###

Measured GRinf, listed per entry for reference.
- System: Mycobacterium tuberculosis Erdman (pMV306hsp+LuxG13)
- testName: GRinf, normalised growth-rate inhibition at infinite dose (GR value (unitless, negative = killing)); higher = less potent
- conditionSummary: growth medium: valerate 0.1%; time point: terminal time point
Write the value as a bare number.

[[record]]
molecule = "CO[C@H]1/C=C/O[C@@]2(C)Oc3c(C)c(O)c4c(O)c(c(/C=N/N5CCN(C)CC5)c(O)c4c3C2=O)NC(=O)/C(C)=C\\C=C\\[C@H](C)[C@H](O)[C@@H](C)[C@@H](O)[C@@H](C)[C@H](OC(C)=O)[C@@H]1C [rifampicin] + CC(C)=CCC/C(C)=C/CNCCNC1C2CC3CC(C2)CC1C3 [SQ109]"
observationtype = "GRinf"
numericreadout = 0.0133

[[record]]
molecule = "NC(=O)c1cnccn1 [pyrazinamide] + CC(C)=CCC/C(C)=C/CNCCNC1C2CC3CC(C2)CC1C3 [SQ109]"
observationtype = "GRinf"
numericreadout = 0.0196

[[record]]
molecule = "CC[C@@H](CO)NCCN[C@@H](CC)CO [ethambutol] + CC(=O)NC[C@H]1CN(c2ccc(N3CCSCC3)c(F)c2)C(=O)O1 [sutezolid]"
observationtype = "GRinf"
numericreadout = -0.02

[[record]]
molecule = "CO[C@H]1/C=C/O[C@@]2(C)Oc3c(C)c(O)c4c(O)c(c(/C=N/N5CCN(C)CC5)c(O)c4c3C2=O)NC(=O)/C(C)=C\\C=C\\[C@H](C)[C@H](O)[C@@H](C)[C@@H](O)[C@@H](C)[C@H](OC(C)=O)[C@@H]1C [rifampicin] + CC(=O)NC[C@H]1CN(c2ccc(N3CCSCC3)c(F)c2)C(=O)O1 [sutezolid]"
observationtype = "GRinf"
numericreadout = -0.0207

[[record]]
molecule = "CC(C)/N=c1\\cc2n(-c3ccc(Cl)cc3)c3ccccc3nc-2cc1Nc1ccc(Cl)cc1 [clofazimine] + CC(=O)NC[C@H]1CN(c2ccc(N3CCSCC3)c(F)c2)C(=O)O1 [sutezolid]"
observationtype = "GRinf"
numericreadout = 0.184


Could you now consider this next molecule?
[ask] Dear colleague, I am looking for the recorded GRinf of the following molecule: CC[C@@H](CO)NCCN[C@@H](CC)CO [ethambutol] + CC(C)=CCC/C(C)=C/CNCCNC1C2CC3CC(C2)CC1C3 [SQ109]
[reply] 0.175

src = the supplement of paper PMC9512659
